Taken from ChEMBL document CHEMBL1201862.

Molecular target: Sentrin-specific protease 8 (Homo sapiens);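 note: luminescence read-out of SENP8 inhibition, dose-response confirmation following an ultra-high-throughput screen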
Sequence (Q96LD8 whole entry): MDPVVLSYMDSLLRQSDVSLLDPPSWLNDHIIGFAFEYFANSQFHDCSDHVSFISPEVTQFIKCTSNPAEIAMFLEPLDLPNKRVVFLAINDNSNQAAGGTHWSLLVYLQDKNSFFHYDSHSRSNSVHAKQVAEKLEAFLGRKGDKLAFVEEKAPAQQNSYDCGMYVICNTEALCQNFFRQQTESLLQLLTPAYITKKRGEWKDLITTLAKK
Assay type: functional
The source made the active and inactive calls.

compound	testTarget	IC50
O=C(c1ccc(F)cc1)n1c(=S)nc2ccccn21	Sentrin-specific protease 8 (Homo sapiens)	86.1 µM (active)
O=C1OC(Nc2cc(Br)cc3cccnc23)c2ccccc21 (configuration not stated)	Sentrin-specific protease 8 (Homo sapiens)	1.63 µM (active)
Oc1ccc(/N=C/c2ccc(OCc3ccccc3)cc2)cc1	Sentrin-specific protease 8 (Homo sapiens)	24.1 µM (active)
CCCOc1ccc(-c2nnc(-c3ccco3)o2)cc1	Sentrin-specific protease 8 (Homo sapiens)	25.8 µM (active)
Nc1c(N2CCCC2)cc(Cl)c2nonc12	Sentrin-specific protease 8 (Homo sapiens)	4.09 µM (active)
O=C(NNc1cc(N2CCOCC2)nc(N2CCOCC2)n1)c1ccc([N+](=O)[O-])cc1	Sentrin-specific protease 8 (Homo sapiens)	6.99 µM (active)
CCOC(=O)c1sc(NC(=O)c2ccc3nc[nH]c3c2)nc1C	Sentrin-specific protease 8 (Homo sapiens)	3.4 µM (active)

---

Parameter: EC50. Scope: all listed entries.
Test system: BJ
Experiment: cells
Type: functional, cell-based
Details: Homo sapiens
Activity calls are given as the source filed them.

compound	EC50
C=CCOc1ccc2[nH]c(NC(=O)OC)nc2c1	18.4 µM (inconclusive)
COC(=O)Nc1nc(-c2ccccc2)c(C(=O)c2ccccc2)s1	1.56 µM (active)
Cc1ccc(CCC(=O)Nc2ncc(Cc3cccc(Cl)c3Cl)s2)o1	0.668 µM (active)
Cc1ccccc1N=Nc1ccc(O)c2ncccc12	15.1 µM (inconclusive)
CCCC/N=C/[C@]12CCC(O)CC1(O)CCC1[C@@H]2CC[C@]2(C)[C@H](C3C=CC(=O)O3)CCC12O (some centres not stated)	0.538 µM (active)
CCCCC1=CC2=C(c3ccco3)C(=O)C(C)(OC(=O)c3ccc(OC)cc3)C(=O)C2=CN1c1ccc(OC)cc1 (configuration not stated)	> 150 µM (not active)
O=Cc1cc2ccccc2nc1SCc1ccc(Cl)cc1	0.699 µM (active)

---

Parameter: IC50. Scope: all listed entries.
Target: Leucine aminopeptidase (Plasmodium falciparum 3D7)
Sequence (Q8IL11 whole entry): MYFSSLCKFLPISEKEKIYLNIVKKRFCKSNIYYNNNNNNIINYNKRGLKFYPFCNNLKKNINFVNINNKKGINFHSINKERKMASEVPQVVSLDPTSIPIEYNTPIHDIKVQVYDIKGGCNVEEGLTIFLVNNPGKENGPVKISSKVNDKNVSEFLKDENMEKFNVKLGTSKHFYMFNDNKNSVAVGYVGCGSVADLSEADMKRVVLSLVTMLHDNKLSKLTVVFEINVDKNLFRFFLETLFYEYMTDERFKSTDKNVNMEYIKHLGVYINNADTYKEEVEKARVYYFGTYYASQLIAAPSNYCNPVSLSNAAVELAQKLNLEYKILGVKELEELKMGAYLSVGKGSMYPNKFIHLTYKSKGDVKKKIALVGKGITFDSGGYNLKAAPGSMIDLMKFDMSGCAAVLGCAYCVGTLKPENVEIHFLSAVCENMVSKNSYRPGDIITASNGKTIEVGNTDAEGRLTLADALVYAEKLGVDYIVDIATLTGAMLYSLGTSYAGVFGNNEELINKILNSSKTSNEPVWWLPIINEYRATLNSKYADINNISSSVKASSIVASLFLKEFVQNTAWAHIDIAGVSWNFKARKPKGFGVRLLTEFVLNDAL
Assay: P. falciparum M17LAP inhibitors, primary screen, biochemical, fluorogenic H-Leu-NHMec substrate, 1536-well (AID 1619)
Type: functional
Activity calls are given as the source filed them.

compound	IC50
O=C(O)Cn1nnnc1SCC(=O)Nc1ccc(OC(F)(F)F)cc1	5.22 µM (active)
O=C(NCC1CCCO1)c1sc(=S)n2c1[nH]c(=O)c1ccc(C(=O)N3CCCCC3)cc12 (stereo unspecified)	65.4 µM (active)
Cc1ccc(-c2nn(CCC(=O)O)cc2/C=C\C(=O)c2ccc(Br)cc2)cc1	34 µM (active)
CCOc1ccc(N2C(=O)CC(SCCN)C2=O)cc1 (stereo unspecified)	23.6 µM (active)
CC(C)Oc1ccc(C(CC(=O)O)NC(=O)CSc2nnc[nH]2)cc1 (stereo unspecified)	47.4 µM (active)
O=[N+]([O-])c1ccc(Sc2nnc(-c3ccccc3)[nH]2)nc1	31.5 µM (active)

---

Biological target: Beta-galactosidase (Escherichia coli, UniProt Q8VNN2)
Sequence (Q8VNN2 whole entry): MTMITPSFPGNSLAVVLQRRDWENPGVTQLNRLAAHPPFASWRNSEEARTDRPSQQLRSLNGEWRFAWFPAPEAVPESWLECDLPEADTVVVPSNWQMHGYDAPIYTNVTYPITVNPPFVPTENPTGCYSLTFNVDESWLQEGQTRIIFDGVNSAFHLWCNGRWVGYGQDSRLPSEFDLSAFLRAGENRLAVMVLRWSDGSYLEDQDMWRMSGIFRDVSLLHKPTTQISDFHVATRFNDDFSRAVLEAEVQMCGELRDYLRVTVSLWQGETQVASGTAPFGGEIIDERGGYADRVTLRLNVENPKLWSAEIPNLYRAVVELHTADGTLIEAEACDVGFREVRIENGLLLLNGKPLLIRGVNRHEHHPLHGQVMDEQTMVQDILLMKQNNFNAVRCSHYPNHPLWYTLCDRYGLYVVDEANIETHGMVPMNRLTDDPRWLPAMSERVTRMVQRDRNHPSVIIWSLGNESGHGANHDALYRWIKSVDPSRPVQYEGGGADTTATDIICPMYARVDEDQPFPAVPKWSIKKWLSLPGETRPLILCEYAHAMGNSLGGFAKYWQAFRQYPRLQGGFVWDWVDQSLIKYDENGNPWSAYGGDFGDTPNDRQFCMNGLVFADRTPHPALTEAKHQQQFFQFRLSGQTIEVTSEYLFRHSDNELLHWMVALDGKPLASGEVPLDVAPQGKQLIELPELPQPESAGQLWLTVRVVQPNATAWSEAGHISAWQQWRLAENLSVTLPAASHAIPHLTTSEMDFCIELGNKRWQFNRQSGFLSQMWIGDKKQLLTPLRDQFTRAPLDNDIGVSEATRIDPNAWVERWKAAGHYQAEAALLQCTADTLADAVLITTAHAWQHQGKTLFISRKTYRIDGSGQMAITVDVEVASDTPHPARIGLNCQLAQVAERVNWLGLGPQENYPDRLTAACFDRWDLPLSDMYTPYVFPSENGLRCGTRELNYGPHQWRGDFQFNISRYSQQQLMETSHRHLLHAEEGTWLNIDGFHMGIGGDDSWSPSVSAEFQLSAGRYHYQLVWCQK
Test: PubChem AID 485352
Format: functional
The source made the active and inactive calls.
Labels: y for active, n for inactive

molecule	testTarget	labelClass
Cc1ccc(C(C[N+](=O)[O-])Sc2ccc(N)cc2)cc1 (stereo unspecified)	Beta-galactosidase (Escherichia coli, UniProt Q8VNN2)	y
COCc1cc(O)nc(Nc2nc3ccc(C)cc3o2)n1	Beta-galactosidase (Escherichia coli, UniProt Q8VNN2)	n
CCn1nc(C)cc1-c1nnc(Sc2ncc([N+](=O)[O-])s2)n1C	Beta-galactosidase (Escherichia coli, UniProt Q8VNN2)	n
O=C(NNc1ccc(Cl)cc1)c1sccc1Cl	Beta-galactosidase (Escherichia coli, UniProt Q8VNN2)	n
O=[N+]([O-])c1cccc(/C=N/NS(=O)(=O)c2ccccc2)c1	Beta-galactosidase (Escherichia coli, UniProt Q8VNN2)	n
Cc1ccc2c(c1)nnn2C1CCN(CC(=O)NCCc2nc3ccccc3[nH]2)CC1	Beta-galactosidase (Escherichia coli, UniProt Q8VNN2)	n

---

Target: Fatty acid synthase (Homo sapiens, UniProt P49327)
Assay: FAS thioesterase domain inhibitors, dose response, biochemical, endpoint fluorescence intensity, uHTS hits (AID 624327);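 note: fluorescence from hydrolysis of an O-methyl fluorescein acyl ester substrate by the enzyme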
Format: functional
Active and inactive are the calls of the source.
Labels: Y = active, N = inactive

compound	testTarget	labelClass
COc1cccc(-n2c(CN3CCN(c4ccccn4)CC3)nc3ccc([N+](=O)[O-])cc3c2=O)c1	Fatty acid synthase (Homo sapiens, UniProt P49327)	Y
Cc1cc2c(=O)oc(-c3ccccc3Br)nc2s1	Fatty acid synthase (Homo sapiens, UniProt P49327)	Y
O=C1CC(c2cccc([N+](=O)[O-])c2)c2c(ccc3ccccc23)N1 (centres undefined)	Fatty acid synthase (Homo sapiens, UniProt P49327)	N
N#Cc1cc(-c2ccccc2)nc(Oc2ccc(Cl)cc2)n1	Fatty acid synthase (Homo sapiens, UniProt P49327)	Y
Cc1ccc(OCCNC(=O)CNC(=O)c2ccc(Cl)c([N+](=O)[O-])c2)cc1	Fatty acid synthase (Homo sapiens, UniProt P49327)	Y
O=C(Nc1cccc(C(=O)O)c1)/C(=C\c1cccc([N+](=O)[O-])c1)NC(=O)c1ccc(Br)cc1	Fatty acid synthase (Homo sapiens, UniProt P49327)	Y
CCOC(=O)[C@]12Cc3cc(C)ccc3[C@H]1N(C1CCCCC1)C(=O)c1ccccc12	Fatty acid synthase (Homo sapiens, UniProt P49327)	Y
CCN(Cc1ccccc1)c1ccc(N=Nc2nn(C)c(C)c2[N+](=O)[O-])cc1	Fatty acid synthase (Homo sapiens, UniProt P49327)	Y
O=[N+]([O-])c1ccc(Sc2nnc(-c3ccccc3)[nH]2)nc1	Fatty acid synthase (Homo sapiens, UniProt P49327)	Y

---

Biological target: Aminopeptidase N (Plasmodium falciparum FcB1/Columbia)
Sequence (O96935 whole entry): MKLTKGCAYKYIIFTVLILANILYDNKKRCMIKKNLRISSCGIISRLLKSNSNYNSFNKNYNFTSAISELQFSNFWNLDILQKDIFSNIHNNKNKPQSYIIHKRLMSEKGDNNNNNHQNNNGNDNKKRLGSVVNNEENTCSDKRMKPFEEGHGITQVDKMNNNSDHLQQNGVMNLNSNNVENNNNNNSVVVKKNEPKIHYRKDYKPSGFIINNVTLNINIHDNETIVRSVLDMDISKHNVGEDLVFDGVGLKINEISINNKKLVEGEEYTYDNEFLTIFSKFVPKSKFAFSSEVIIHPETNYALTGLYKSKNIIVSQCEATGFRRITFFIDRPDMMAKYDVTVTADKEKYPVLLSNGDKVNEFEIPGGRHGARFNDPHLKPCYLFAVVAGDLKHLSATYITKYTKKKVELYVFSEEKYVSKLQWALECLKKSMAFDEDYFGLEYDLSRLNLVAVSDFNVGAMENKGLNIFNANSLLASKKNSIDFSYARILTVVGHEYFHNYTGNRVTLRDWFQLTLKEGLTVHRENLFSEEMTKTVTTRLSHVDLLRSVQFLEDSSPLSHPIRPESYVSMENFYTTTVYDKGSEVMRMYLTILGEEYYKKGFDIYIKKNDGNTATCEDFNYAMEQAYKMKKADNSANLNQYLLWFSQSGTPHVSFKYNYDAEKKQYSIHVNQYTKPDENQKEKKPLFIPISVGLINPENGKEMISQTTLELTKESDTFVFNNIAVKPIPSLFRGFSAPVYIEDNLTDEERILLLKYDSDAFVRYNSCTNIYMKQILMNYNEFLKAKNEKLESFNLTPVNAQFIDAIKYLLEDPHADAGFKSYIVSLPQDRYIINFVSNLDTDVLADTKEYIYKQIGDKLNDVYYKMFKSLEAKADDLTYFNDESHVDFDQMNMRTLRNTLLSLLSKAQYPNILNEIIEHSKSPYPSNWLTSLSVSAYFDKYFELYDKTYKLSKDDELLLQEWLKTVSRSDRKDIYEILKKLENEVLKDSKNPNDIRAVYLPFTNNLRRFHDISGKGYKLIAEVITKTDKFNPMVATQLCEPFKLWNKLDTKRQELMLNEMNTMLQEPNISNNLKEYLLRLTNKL
Assay: P. falciparum M1AAP inhibitors, biochemical, fluorogenic H-Leu-NHMec substrate, 1536-well (AID 1445)
Design: species or system Plasmodium falciparum 3D7, 3D7
The source made the active and inactive calls.

compound	IC50
Cc1c(N2C(=O)C(O)=C(C(=O)c3ccc(Br)cc3)C2c2cccnc2)c(=O)n(-c2ccccc2)n1C (configuration not stated)	38.1 µM (active)
O=C(O)c1cccc(NC(=S)NC(NC(=O)c2ccco2)C(Cl)(Cl)Cl)c1 (configuration not stated)	39.9 µM (active)
C/C(=N/NC(=O)c1cc2ccccc2cc1O)C1C(=O)c2ccccc2C1=O	12 µM (active)
COC(=O)c1ccc(N2NC(=O)/C(=C/c3ccc(-c4ccc(Cl)c(C(=O)O)c4)o3)C2=O)cc1	28.6 µM (active)
CCCCCCC(=O)N(O)C1CC(=O)N(c2ccccc2)C1=O (configuration not stated)	66.5 µM (active)
COc1ccc(OCC(=O)N2CCN(C(=O)COc3ccc(Br)cc3)CC2)cc1	59.2 µM (active)
O=C(O)C(c1ccccc1)N1C(=O)/C(=C/c2cccs2)SC1=S (configuration not stated)	57.7 µM (active)

---

Experiment: inhibitors of HIV Env-driven cell fusion, dose response, cherry-pick (AID 652057)
Format: functional, cell-based
Active and inactive are the calls of the source.
measuredParameter: AC50

compound	measured
COc1cc(C(=O)N2CCN(c3ncnc4sc(C)c(C)c34)CC2)cc(OC)c1OC	33.7 µM (active)
CCOc1ccc(OCc2cccc(C(=O)N3CCOCC3)c2)cc1	2.64 µM (active)
Cc1ccc(S(=O)(=O)Nc2ccc3c(c2)CC(=O)N([C@@H](C)CO)C[C@H](C)[C@H](CN(C)S(=O)(=O)c2ccccc2)O3)cc1	14.7 µM (active)
C[C@@H]1CNC(=O)c2c(C(=O)N3CCN(c4ccccc4)CC3)ncn21	7.81 µM (active)
COc1cccc(-c2noc(C3CCCN(S(=O)(=O)c4cccc(Cl)c4C)C3)n2)c1 (stereo not given)	6.22 µM (active)

---

Biological target: Melanocortin receptor 4 (Homo sapiens, UniProt P32245)
Sequence (P32245 whole entry): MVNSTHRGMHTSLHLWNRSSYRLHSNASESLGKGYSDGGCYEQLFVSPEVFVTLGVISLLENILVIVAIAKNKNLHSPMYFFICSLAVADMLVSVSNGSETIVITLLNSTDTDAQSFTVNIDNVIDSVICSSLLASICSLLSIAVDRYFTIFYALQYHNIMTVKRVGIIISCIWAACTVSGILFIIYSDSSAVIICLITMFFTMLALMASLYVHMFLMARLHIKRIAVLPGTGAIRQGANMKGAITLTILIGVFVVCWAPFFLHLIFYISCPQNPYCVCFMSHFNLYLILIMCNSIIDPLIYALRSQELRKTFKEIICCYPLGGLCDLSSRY
Test: MC4R antagonist potency on cAMP, dose response, cell-based, TR-FRET, biased antagonists (AID 602298);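 note: antagonist potency against agonist-stimulated cAMP production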
Format: functional
Calls of active or inactive are those of the source.
Labels: active, inactive

compound	labelClass
COc1ccccc1C1(CCNC(C)c2cccs2)CCOC(C(C)C)C1 (stereo unspecified)	inactive
CCOC(=O)c1cnc2ccc(C)cc2c1Nc1ccc(N2CCOCC2)cc1	inactive
CN(C)S(=O)(=O)c1ccc(-c2csc(N/N=C/c3ccc(O)cc3)n2)cc1	inactive
O=S(=O)(/C(=C\c1ccc(C(F)(F)F)cc1)c1nc2ccccc2[nH]1)c1ccccc1	active
CC(=O)n1cc(N(C(=O)CCl)c2ccc(Cl)cc2)c2ccccc21	inactive
O=S(=O)(c1ccc(F)cc1)N1CCN(c2nc(-c3cccnc3)nc3ccccc23)CC1	inactive
